Cited source for all entries: PubChem BioAssay AID1846

# TARGET OF ASSAY: Heat shock protein HSP 90-alpha (Homo sapiens) (UniProt P07900)
# METHOD: inhibitors of HSP90 chaperone activity – cell lysate, luminescence, confirmation (AID 1846);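 note: 0% = vehicle wells and 100% = reference inhibitor wells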
# MEASUREMENT PARAMETERS: rabbit reticulocyte lysate, luciferase refolding luminescence, 3 h; at 5.9 µM; active compounds read high
Out of some 2,300 compounds screened, about 1,500 (65%) were called active. So high a share suggests a set chosen from earlier hits. These entries were drawn from the full list.

{"MOLECULE": "COc1ccc(/C=C/c2noc(-c3ccccc3OC(C)=O)n2)cc1", "inhibition": "45.2% (active)"}
{"MOLECULE": "O=C(Nc1ccc2c(c1)OCCO2)C1CCCN(c2ncccn2)C1 (centres undefined)", "inhibition": "34.1% (active)"}
{"MOLECULE": "C=CCN1CCN(C(=O)CCCc2ccccc2)CC1", "inhibition": "52.5% (active)"}
{"MOLECULE": "c1ccc(-c2ccc3c(c2)NC(C2Nc4cc(-c5ccccc5)ccc4O2)O3)cc1 (centres undefined)", "inhibition": "8.8% (inactive)"}
{"MOLECULE": "Cc1ccc(-c2cn3cc(C)ccc3n2)cc1", "inhibition": "90.3% (active)"}
{"MOLECULE": "Cc1cccc(CCNC(=O)Cn2ncc3c([nH]c4ccc(C)cc43)c2=O)c1", "inhibition": "5.53% (inactive)"}
{"MOLECULE": "COc1cc(CNC2CCCCC2)c(Br)cc1OC1CCCC1", "inhibition": "5.53% (inactive)"}
{"MOLECULE": "O=C(O)c1ccc(N=NN2CCOCC2)cc1", "inhibition": "-8.5% (inactive)"}
{"MOLECULE": "c1c2c(cc3sc(N4CCCCC4)nc13)OCCO2", "inhibition": "81.9% (active)"}
{"MOLECULE": "Cc1ccc(C(=O)COC(=O)c2cccc(N3C(=O)c4c(C)nc5ccccc5c4C3=O)c2)cc1C", "inhibition": "4.83% (inactive)"}
{"MOLECULE": "O=C(CN1C(=O)c2ccccc2S1(=O)=O)N1CCc2ccccc21", "inhibition": "46.1% (active)"}
{"MOLECULE": "CCOC(=O)CNC(=O)c1nn(-c2cccc(OC)c2)c(=O)c2ccccc12", "inhibition": "-0.53% (inactive)"}
{"MOLECULE": "CCS(=O)(=O)c1cc([N+](=O)[O-])c(Sc2ccccc2N)s1", "inhibition": "56% (active)"}
{"MOLECULE": "Cc1ccc(-n2c(SCC(=O)Nc3ncc(Cl)cc3Cl)nc3ccccc32)cc1", "inhibition": "14% (inactive)"}
{"MOLECULE": "O=C(CSC(=S)N1CCOCC1)c1ccccc1", "inhibition": "57.6% (active)"}
{"MOLECULE": "COc1ccc(CNC(=O)/C(C#N)=C/c2cccc(OC)c2OC)cc1", "inhibition": "18.9% (active)"}
{"MOLECULE": "COc1cc(C(=O)NN(CCC#N)C2=NS(=O)(=O)c3ccccc32)cc(OC)c1OC", "inhibition": "-4.73% (inactive)"}
{"MOLECULE": "O=C(Nc1nc2ccccc2s1)c1ccc2c(c1)OCO2", "inhibition": "57.7% (active)"}
{"MOLECULE": "CN(C)c1ccc(-n2cccc2/C=N/n2cnnc2)cc1", "inhibition": "45.9% (active)"}
{"MOLECULE": "O=C(OC1CCOC1=O)c1ccc(-c2nc3ccccc3s2)s1 (centres undefined)", "inhibition": "60.6% (active)"}
{"MOLECULE": "Clc1ccc(-c2cc(-c3ccccn3)on2)c(Cl)c1", "inhibition": "84.9% (active)"}
{"MOLECULE": "c1ccc(-c2noc(-c3cccs3)n2)nc1", "inhibition": "43.7% (active)"}
{"MOLECULE": "CN(c1ccc2nc3ccccc3c(=O)n2n1)C1CCCCC1", "inhibition": "90.9% (active)"}
{"MOLECULE": "COc1ccc(Nc2ncnc3ccc(Br)cc23)c(OC)c1", "inhibition": "54.7% (active)"}
